Target: T1, TNFR2 on human K562 chronic myeloid leukemia cells and on primary human Treg cells (human, UniProt P20333 23-461)
T1 construct: whole, on cells; also called K562 cells
T1 sequence (looked up): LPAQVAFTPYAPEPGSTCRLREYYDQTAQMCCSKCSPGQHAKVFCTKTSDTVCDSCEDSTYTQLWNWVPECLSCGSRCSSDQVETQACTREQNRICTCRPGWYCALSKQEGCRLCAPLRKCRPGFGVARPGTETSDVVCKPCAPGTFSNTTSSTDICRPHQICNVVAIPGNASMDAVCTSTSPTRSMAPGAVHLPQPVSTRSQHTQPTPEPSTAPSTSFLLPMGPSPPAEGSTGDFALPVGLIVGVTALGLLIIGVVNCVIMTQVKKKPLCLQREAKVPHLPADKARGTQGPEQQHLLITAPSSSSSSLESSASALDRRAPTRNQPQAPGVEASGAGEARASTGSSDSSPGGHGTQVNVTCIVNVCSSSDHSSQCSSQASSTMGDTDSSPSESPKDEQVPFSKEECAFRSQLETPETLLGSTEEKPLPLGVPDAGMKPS
Assay: flow cytometry on human K562 CML cells, MFI(FL2); unit taken from the axis Conc log(nM)
pEC50: −log10 of the molar value.
property-measured: pEC50

- humanized antibody hz69B1.11 (antibody, human IgG1, kappa, V domains shown) VH: QVQLVQSGAEVKKPGASVKVSCKASGYTFTDYSMNWVRQAPGQRLEWMGWLNTETGEPIYADDFKGRVTITRDTSASTAYMELSSLRSEDTAVYYCAREAIYYGTSYVLDYWGQGTLVTVSS VL: DIVLTQSPASLAVSPGQRATITCRASESVEYYGTNFMQWYQQKPGQPPKLLIYSASNVESGVPARFSGSGSGTDFTLTINPVEAQDTANYFCQQSRKDPSTFGQGTKLEIKR: 10.35
